molecular target: Human BCMA (human) (UniProt Q02223); test: SPR, IgG on chip, huBCMA analyte
measurement.type: koff (s⁻¹)
One number for each entry, in s⁻¹.

Below, 3 binders whose answers are already recorded.
1. A02_Rd4_0.6nM_C09 (antibody, V domains shown, IgG) VH: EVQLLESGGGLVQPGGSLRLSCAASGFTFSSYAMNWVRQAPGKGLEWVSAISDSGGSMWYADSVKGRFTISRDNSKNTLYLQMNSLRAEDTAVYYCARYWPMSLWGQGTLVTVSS VL: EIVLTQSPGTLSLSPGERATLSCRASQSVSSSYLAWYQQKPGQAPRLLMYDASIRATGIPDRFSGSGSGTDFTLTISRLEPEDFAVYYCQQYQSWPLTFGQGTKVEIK; 9.75e-05
2. C01_Rd4_6nM_C26 (antibody, V domains shown, IgG) VH: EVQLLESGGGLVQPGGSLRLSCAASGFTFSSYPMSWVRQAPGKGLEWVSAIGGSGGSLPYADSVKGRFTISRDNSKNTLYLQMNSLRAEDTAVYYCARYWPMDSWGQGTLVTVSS VL: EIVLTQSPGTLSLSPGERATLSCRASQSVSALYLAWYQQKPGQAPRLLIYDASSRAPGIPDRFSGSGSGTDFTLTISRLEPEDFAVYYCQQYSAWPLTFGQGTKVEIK; 0.00136
3. A02_Rd4_0.6nM_C10 (antibody, V domains shown, IgG) VH: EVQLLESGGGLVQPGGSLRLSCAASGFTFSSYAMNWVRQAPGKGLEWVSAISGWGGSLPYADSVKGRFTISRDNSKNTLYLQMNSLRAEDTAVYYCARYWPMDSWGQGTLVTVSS VL: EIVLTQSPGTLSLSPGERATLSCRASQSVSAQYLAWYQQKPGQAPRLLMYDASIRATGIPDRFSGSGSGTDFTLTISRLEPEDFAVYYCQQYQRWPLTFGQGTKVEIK; 0.000296

Pending binder:
// query Specify reported koff for the binder shown: COMBO_Rd4_6nM_C08 (antibody, V domains shown, IgG) VH: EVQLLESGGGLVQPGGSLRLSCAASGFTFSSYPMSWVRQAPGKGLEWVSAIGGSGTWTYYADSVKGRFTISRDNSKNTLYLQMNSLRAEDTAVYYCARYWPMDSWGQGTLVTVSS VL: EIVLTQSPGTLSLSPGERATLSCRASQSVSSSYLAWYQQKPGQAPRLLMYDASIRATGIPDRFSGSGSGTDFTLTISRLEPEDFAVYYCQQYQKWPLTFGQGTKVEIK
// result 0.000169

Source listed as patent US20190241669A1.
